Entries and their max response
- ASSAY_PROCEDURE: qHTS Assay for Lipid Storage Modulators (AID 1519)
- CONDITION_DESCRIPTION: Drosophila S3 cells, BODIPY lipid droplet/cell ratio, laser cytometry; measured here: lipid channel max response; cells loaded with oleic acid
Records with an inconclusive call do not appear.

[
  {
    "COMPOUND": "O=C(c1ccco1)N1CCC2(CC1)CN(c1ccc(-c3ccccc3)cc1)C2",
    "UOM": "%",
    "max response": -11.7
  },
  {
    "COMPOUND": "COc1cccc(-c2ccc3ncnc(N4CCN(C)CC4)c3c2)c1",
    "UOM": "%",
    "max response": 10.1
  },
  {
    "COMPOUND": "CC(=O)N1CCC2(CC1)CN(c1ccccn1)C2",
    "UOM": "%",
    "max response": 14.1
  },
  {
    "COMPOUND": "COCCn1c(=O)c(C)nc2cnc(Oc3ccc(OC)cc3)nc21",
    "UOM": "%",
    "max response": 27.3
  },
  {
    "COMPOUND": "COc1ccc(-c2nc3cnc(Oc4cccc(Cl)c4)nc3n(C3CC3)c2=O)cc1",
    "UOM": "%",
    "max response": -19.7
  },
  {
    "COMPOUND": "C=C1CCC2[C@](C)(CO)C(O)CC[C@]2(C)C1C/C=C1/C(=O)OCC1O (stereo partly specified)",
    "UOM": "%",
    "max response": 17.4
  },
  {
    "COMPOUND": "COc1ccc(-c2nc3cnc(Nc4ccccc4)nc3n(C[C@H]3CCCO3)c2=O)cc1",
    "UOM": "%",
    "max response": -87.2
  },
  {
    "COMPOUND": "CN1C(=O)CCC1c1cccnc1 (stereo unspecified)",
    "UOM": "%",
    "max response": 10.6
  },
  {
    "COMPOUND": "O=C(CCc1ccc(O)cc1)c1c(O)cc(O)cc1O[C@@H]1O[C@H](CO)[C@@H](O)[C@H](O)[C@H]1O",
    "UOM": "%",
    "max response": 29.9
  },
  {
    "COMPOUND": "Cc1ccccc1-c1cncnc1N(C)Cc1ccco1",
    "UOM": "%",
    "max response": 2.41
  },
  {
    "COMPOUND": "COc1ccccc1CN1CC[C@@]2(CCCN(C(=O)c3c(C)noc3C)C2)C1",
    "UOM": "%",
    "max response": 12.8
  }
]

---

- MEASUREMENT_TARGET: Glutathione peroxidase 1 (Homo sapiens) (UniProt P07203)
- Sequence (P07203 whole entry, looked up): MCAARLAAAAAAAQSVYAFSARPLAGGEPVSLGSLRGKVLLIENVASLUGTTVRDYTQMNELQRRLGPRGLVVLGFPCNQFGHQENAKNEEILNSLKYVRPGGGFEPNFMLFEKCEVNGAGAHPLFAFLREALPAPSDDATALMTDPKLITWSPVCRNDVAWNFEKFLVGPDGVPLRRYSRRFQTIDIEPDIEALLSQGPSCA
- ASSAY_PROCEDURE: Primary qHTS Assay for Inhibitors of Recombinant Selenoprotein Glutathione Peroxidase 1 (GPX1) (AID 1845191); note: nearly all actives have a fitted effect of over 65% in size; note: potency is the fitted concentration of half-maximal effect
- CONDITION_DESCRIPTION: recombinant GPX1, GR-coupled NADPH fluorescence, 15 min; series mostly up to 48.8 µM
Results filed as inconclusive are left out. The source made the active and inactive calls. Calls follow the shape of the dose curve; as a rule, active = well fitted inhibition curve with a large enough effect; inconclusive = small, poorly fitted or top-dose-only effect; inactive = flat fitted curve, though single readings scatter.

[
  {
    "SMILES_TEXT": "COc1cc(-c2cn(C)c(=O)c3cnccc23)c(OC)cc1CN(C)C",
    "Potency": "inactive"
  },
  {
    "SMILES_TEXT": "C[C@H](NC(=O)CCC(F)(F)F)C(=O)N[C@@H]1C(=O)N(CCO)c2ncccc2-c2ccccc21",
    "Potency": "inactive"
  },
  {
    "SMILES_TEXT": "COc1ccc(C(=O)N2CCN(c3ccc4c(c3)CCC(=O)N4)CC2)cc1OC",
    "Potency": "inactive"
  },
  {
    "SMILES_TEXT": "CC[C@@]1(O)C(=O)OCc2c1cc1n(c2=O)Cc2c-1nc1cc(F)c(C)c3c1c2[C@@H](N)CC3",
    "Potency": "14.5 µM (active)"
  },
  {
    "SMILES_TEXT": "O=C(Cc1ccccc1)Nc1nnc(CCSCCc2nnc(NC(=O)Cc3ccccc3)s2)s1",
    "Potency": "inactive"
  },
  {
    "SMILES_TEXT": "CC1(C)S[C@H]2[C@H](NC(=O)[C@@H](N)c3ccc(O)cc3)C(=O)N2[C@H]1C(=O)O",
    "Potency": "inactive"
  },
  {
    "SMILES_TEXT": "COC(=O)N(CC(=O)O)Cc1cccc(OCc2nc(-c3ccc(Cl)cc3)oc2C)c1",
    "Potency": "inactive"
  },
  {
    "SMILES_TEXT": "O=c1[nH]nc2c3c(cccc13)NC(CN1Cc3ccccc3C1)=N2",
    "Potency": "inactive"
  },
  {
    "SMILES_TEXT": "COc1ccccc1C(=O)Nc1cc2c(cc1N1CCCCC1)n(C)c(=O)n2C",
    "Potency": "inactive"
  }
]

---

- ASSAY_PROCEDURE: qHTS to identify inhibitors of the type 1 interferon - major histocompatibility complex class I in skeletal muscle: primary screen against the NCATS Mechanism Interrogation Plate v5.0 (MIPE) Libary (AID 1347411); note: nearly all actives have a fitted effect of over 65% in size
- CONDITION_DESCRIPTION: iHSKM cells + IFN-b, HiBiT-tagged MHC-I luminescence, 24 h; series mostly up to 45.8 µM
Results filed as inconclusive are left out. Active and inactive are the calls of the source. Calls follow the shape of the dose curve; as a rule, active = well fitted inhibition curve with a large enough effect; inconclusive = small, poorly fitted or top-dose-only effect; inactive = no such curve, though single readings can be large or run the other way.
Labels: TRUE (active), FALSE (inactive)

[
  {
    "MOLECULE": "OC1CCC([C@H](O)C[C@H]2c3c(F)cccc3-c3cncn32)CC1 (stereo not given in full)",
    "ASSIGNED_CLASS": "FALSE"
  },
  {
    "MOLECULE": "Cc1c(F)cccc1NC(=O)Nc1ccc(Cl)c(S(=O)(=O)[C@H]2CCCNC2)c1O",
    "ASSIGNED_CLASS": "FALSE"
  },
  {
    "MOLECULE": "Cc1onc(-c2ccc(F)cc2)c1COc1ccc(C(=O)N2CCS(=O)(=O)CC2)cn1",
    "ASSIGNED_CLASS": "FALSE"
  },
  {
    "MOLECULE": "CN(C)C/C=C/C(=O)Nc1cc2c(Nc3ccc(F)c(Cl)c3)ncnc2cc1O[C@H]1CCOC1",
    "ASSIGNED_CLASS": "TRUE"
  },
  {
    "MOLECULE": "CN1C[C@@H]2c3ccccc3Oc3ccc(Cl)cc3[C@H]2C1",
    "ASSIGNED_CLASS": "FALSE"
  }
]

---

- ASSAY_PROCEDURE: HPAF-II Cancer Cell Toxicity qHTS against the NCATS CANVASS Library (AID 1347346); note: nearly all actives have a fitted effect of over 55% in size
- CONDITION_DESCRIPTION: HPAF-II viability, CellTiter-Glo ATP luminescence, 72 h; series mostly up to 38.3 µM
Results filed as inconclusive are left out. Calls of active or inactive are those of the source. The call rests on the fitted dose curve; in most records, active means well fitted cell-killing curve with a large enough effect; inconclusive means small, poorly fitted or top-dose-only effect; inactive means flat fitted curve, though single readings scatter.
Labels: active, inactive

[
  {
    "COMPOUND": "C/C=C/[C@H]1[C@H]2C(=O)c3c(O)c(C)c(O)c(C)c3[C@]1(C(=O)O)C(=O)C=C2C",
    "ASSIGNED_CLASS": "inactive"
  },
  {
    "COMPOUND": "C/C=C1/C2=CCCN3C(=O)O[C@H]([C@H]1O)[C@H]23",
    "ASSIGNED_CLASS": "inactive"
  },
  {
    "COMPOUND": "C/C(=C\\[C@H](C)C(=O)/C=C/CC1CC(=O)NC(=O)C1)[C@@H]1OC(=O)CCCC/C=C/[C@H](O)[C@@H](O)[C@@H]1C",
    "ASSIGNED_CLASS": "active"
  },
  {
    "COMPOUND": "Oc1ccc(C2Oc3cc(O)c4c(c3[C@@H]2c2cc(O)cc(O)c2)[C@H]2C(c3ccc(O)cc3)c3c(O)cc5c(c3[C@H]2C4c2ccc(O)cc2)[C@H](c2cc(O)cc(O)c2)C(c2ccc(O)cc2)O5)cc1 (some centres undefined)",
    "ASSIGNED_CLASS": "inactive"
  }
]

---

Entries and their Z-AUC
- ASSAY_PROCEDURE: qHTS drug screen for cell cycle checkpoint inhibitors in PARPi-resistant BRCA-mutant ovarian cancer cell lines. (AID 1963452)
- CONDITION_DESCRIPTION: PEO1/OlaR viability, CellTiter-Glo luminescence, 96 h; stronger effect = lower value

[
  {
    "COMPOUND": "COc1cc2c3c(n(CCCN4CCOCC4)c(=O)c2cc1OC)-c1cc2c(cc1C3=O)OCO2",
    "Z-AUC": -2.49
  },
  {
    "COMPOUND": "CN(C)CCOc1ccc(-c2nc(-c3ccc4c(c3)CC/C4=N\\O)c(-c3ccncc3)[nH]2)cc1",
    "Z-AUC": -0.892
  },
  {
    "COMPOUND": "O=C(Cc1ccccc1)Nc1nnc(CCSCCc2nnc(NC(=O)Cc3ccccc3)s2)s1",
    "Z-AUC": 1.43
  },
  {
    "COMPOUND": "COC1CC(C(=O)c2ccc3c(N)ncc(-c4ccc(-c5cnn(C)c5)cc4)c3n2)C1 (centres undefined)",
    "Z-AUC": -1.33
  },
  {
    "COMPOUND": "COc1cc(C(N)=O)ccc1NC(=O)[C@@H]1N[C@@H](CC(C)(C)C)[C@@]2(C(=O)Nc3cc(Cl)ccc32)[C@H]1c1cccc(Cl)c1F",
    "Z-AUC": -0.18
  },
  {
    "COMPOUND": "COc1ccc2c(c1)C(c1ccc(F)cc1)=C(CN1CCCC1)CO2",
    "Z-AUC": -0.385
  },
  {
    "COMPOUND": "CCOC(=N)c1nc2ccc3ncnc(Nc4cc(F)c(F)cc4Cl)c3c2s1",
    "Z-AUC": -1.14
  },
  {
    "COMPOUND": "C[C@]12CCC3=C4CCC(=O)C=C4CC[C@H]3[C@@H]1CC[C@@]2(O)CC#N",
    "Z-AUC": 1.33
  },
  {
    "COMPOUND": "O=C(O)/C(S)=C/c1ccc(I)cc1",
    "Z-AUC": 0.452
  }
]
